Cited source for all entries: PubChem BioAssay AID1745844

Tested on: rodent lifetime carcinogenesis bioassay, tumor incidence TD50
Experiment: carcinogenic potency in animals, long-term in vivo studies, CPDB compilation (AID 1745844)
Conditions: mouse; strain B6C3F1; males; by gavage; site: preputial gland; lesion: squamous-cell carcinoma; dosed 102 weeks; study length 103 weeks
VALUE KIND: TD50

Ask | Request: TD50, test system rodent lifetime carcinogenesis bioassay, tumor incidence TD50, entry `CC(C)=CCl`
Reply | 90.7 mg/kg/day

* * *

Test system: rodent lifetime carcinogenesis bioassay, tumor incidence TD50
Experiment: carcinogenic potency in animals, long-term in vivo studies, CPDB compilation (AID 1745844)
Conditions: rat; strain Alpk:APfSD; females; by gavage; site: stomach; lesion: several types; types named in the paper; dosed 52 weeks; study length 108 weeks
VALUE KIND: TD50

Ask | Return reported TD50; argument: `FCCl`
Reply | 26.5 mg/kg/day

* * *

Test system: rodent lifetime carcinogenesis bioassay, tumor incidence TD50
Assay: carcinogenic potency in animals, long-term in vivo studies, CPDB compilation (AID 1745844)
Settings: mouse; strain C57BL/6JfC3Hf/Nctr x BALB/cStCrlfC3Hf/Nctr; males; in drinking water; site: liver; lesion: hepatocellular adenoma; dosed 80 weeks; study length 80 weeks
VALUE KIND: TD50

Ask | What measured TD50 goes with `Nc1ccc(-c2ccc(N)cc2)cc1` ?
Reply | 94.8 mg/kg/day

* * *

System: rodent lifetime carcinogenesis bioassay, tumor incidence TD50
Assay: carcinogenic potency in animals, long-term in vivo studies, CPDB compilation (AID 1745844)
Details: mouse; strain Charles River CD1; males; inhaled; site: lung; lesion: several types; types named in the paper; dosed 63 weeks; study length 78 weeks
VALUE KIND: TD50

Ask | Observed TD50 on rodent lifetime carcinogenesis bioassay, tumor incidence TD50 for `C=CF` , please.
Reply | 5.78 mg/kg/day

* * *

System: rodent lifetime carcinogenesis bioassay, tumor incidence TD50
Experiment: carcinogenic potency in animals, long-term in vivo studies, CPDB compilation (AID 1745844)
Conditions: rat; strain Sprague-Dawley; females; i.p.; site: brain + nasal cavity; lesion: olfactory neuroblastoma + carcinoma, NOS; dosed 36 weeks; study length 81 weeks
VALUE KIND: TD50

Ask | Given the entry `S=P(N1CC1)(N1CC1)N1CC1` , report its measured TD50.
Reply | 0.819 mg/kg/day

* * *

Tested on: rodent lifetime carcinogenesis bioassay, tumor incidence TD50
Assay: carcinogenic potency in animals, long-term in vivo studies, CPDB compilation (AID 1745844)
Conditions: mouse; strain ICI; females; i.v.; site: any site (literature study); lesion: benign tumor; dosed 75 weeks; study length 104 weeks
Calls of active or inactive are those of the source. The rule behind the calls is not given here.
VALUE KIND: TD50

Ask | Please look up its TD50: `C=Cc1cccc[n+]1[O-]`
Reply | 1690 mg/kg/day (inactive)

* * *

System: rodent lifetime carcinogenesis bioassay, tumor incidence TD50
Test: carcinogenic potency in animals, long-term in vivo studies, CPDB compilation (AID 1745844)
Settings: rat; strain Fischer 344; females; in feed; site: liver; lesion: hepatocellular carcinoma; dosed 103 weeks; study length 104 weeks
VALUE KIND: TD50

Ask | # get_value(readout= TD50, system= rodent lifetime carcinogenesis bioassay, tumor incidence TD50) for `Nc1c(Br)cc(Br)c2c1C(=O)c1ccccc1C2=O`
Reply | 88.4 mg/kg/day

* * *

Test system: rodent lifetime carcinogenesis bioassay, tumor incidence TD50
Assay: carcinogenic potency in animals, long-term in vivo studies, CPDB compilation (AID 1745844)
Details: rat; strain Fischer 344; females; in drinking water; site: liver; lesion: hepatocellular carcinoma; dosed 40 weeks; study length 110 weeks
VALUE KIND: TD50 (mg/kg/day)
Respond with the bare value in mg/kg/day.

Ask | What measured TD50 goes with CN(CC(O)CO)N=O (stereo unspecified) ?
Reply | 3.13
